# Assayed target: UniProtKB P00742
# Sequence (P00742 235-488 limits assumed): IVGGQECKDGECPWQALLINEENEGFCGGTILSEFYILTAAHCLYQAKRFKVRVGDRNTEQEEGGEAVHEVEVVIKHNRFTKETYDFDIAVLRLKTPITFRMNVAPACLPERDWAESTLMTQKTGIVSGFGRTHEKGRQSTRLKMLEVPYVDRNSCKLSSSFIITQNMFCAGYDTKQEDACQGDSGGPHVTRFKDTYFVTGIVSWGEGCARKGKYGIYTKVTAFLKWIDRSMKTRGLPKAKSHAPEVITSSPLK
# Sequence (P00742 41-179 limits assumed): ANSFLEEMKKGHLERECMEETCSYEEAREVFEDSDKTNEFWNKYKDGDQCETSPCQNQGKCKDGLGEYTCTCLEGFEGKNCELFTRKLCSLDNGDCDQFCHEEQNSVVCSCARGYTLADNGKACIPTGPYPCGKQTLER
Threshold check on IC50 or % Inhibition Factor Xa (30 µM): strictly below 2% is criterion met; on or above 2% is criterion not met.

>  <Molecule>
CSCC(C(=O)NCc1ccc(C(=N)N)cc1)n1c(-c2ccccc2)c(Cl)nc(NC2CCC2)c1=O (centres unmarked) [1517-10]

>  <Assayed target>
UniProtKB P00742

>  <Discrete label>
criterion met

$$$$
>  <Molecule>
CCc1c(Cl)nc(NCCN2CCOCC2)c(=O)n1CC(=O)NCc1ccc(C(=N)N)cc1 [1471-60]

>  <Assayed target>
UniProtKB P00742

>  <Discrete label>
criterion met

$$$$
>  <Molecule>
N=C(N)c1ccc(CNC(=O)Cn2c(-c3c(Cl)cccc3Cl)c(Cl)nc(NCc3ccccc3)c2=O)cc1 [1517-06]

>  <Assayed target>
UniProtKB P00742

>  <Discrete label>
criterion met

$$$$
>  <Molecule>
CNc1nc(Cl)c(-c2cccc(N)c2)n(CC(=O)NCc2ccc(C(=N)N)cc2)c1=O [1543-05]

>  <Assayed target>
UniProtKB P00742

>  <Discrete label>
criterion not met

$$$$
>  <Molecule>
N=C(N)NCC#CCNC(=O)Cn1c(-c2ccccc2)cnc(NCCc2ccccc2)c1=O [Example 36]

>  <Assayed target>
UniProtKB P00742

>  <Discrete label>
criterion met

$$$$
>  <Molecule>
N=C(N)c1ccc(CNC(=O)Cn2c(-c3cccc(N)c3)c(Cl)nc(NC3CCCC3)c2=O)c(F)c1 [1543-34]

>  <Assayed target>
UniProtKB P00742

>  <Discrete label>
criterion not met

$$$$
>  <Molecule>
COc1ccc(-c2c(Cl)nc(NCCc3ccncc3)c(=O)n2CC(=O)NCc2ccc(C(=N)N)cc2)cc1 [1471-37]

>  <Assayed target>
UniProtKB P00742

>  <Discrete label>
criterion not met

$$$$
